assay: Antiplatelet activity in rabbit platelets assessed as inhibition of platelet activating factor-induced platelet aggregation; assay type: functional, cell-based, Oryctolagus cuniculus; conditions: Oryctolagus cuniculus, Platelet
# Y = IC50 below 3 µM (exclusive); N = IC50 at/above 3 µM

molecule: C[C@@H]1C(=O)O[C@H]2[C@H](O)[C@@]34[C@H]5C[C@@H](C(C)(C)C)[C@]36[C@@H](OC(=O)[C@@H]6O)O[C@@]4(C(=O)O5)[C@@]12O [GINKOLIDE B]
class: Y
--
molecule: C=CCC1=C[C@]2(OC)C(=CC1=O)O[C@@H](c1ccc(OC)c(OC)c1)[C@H]2C [(+)-DENUDATIN B]
class: N
--
molecule: C=CCC1=C[C@]2(OC)[C@@H](O)[C@@](OC)(C1=O)[C@@H](c1cc(OC)c(OC)c(OC)c1)[C@@H]2C (stereo in doubt; 8) [NECTAMAZIN B]
class: Y
--
molecule: C=CCc1cc2c(cc1O)O[C@H](c1ccc3c(c1)OCO3)[C@H]2C [LILIFLOL A]
class: N
--
molecule: C=CCC1=C[C@@]2(OC)C(=CC1=O)O[C@H](c1cc(OC)c(OC)c(OC)c1)[C@H]2C [MIRANDIN A]
class: N
